target: T1, SARS-CoV-2 S2 (aa686-1208) (Wuhan) (SARS-CoV-2 Wuhan, UniProt P0DTC2 686-1208); assay: SPR, antigen on chip
T1 construct: NRC; FLAG, 6xHis tags
Below: a set of entries, each annotated with reported pKd.
The meaning of pKd here: minus log10 of the concentration in molar units.

QUERY: Using the record for NRCoV2-MRed11 VHH (VHH) VHH: EVQLVESGGGLVQAGGSLRLSCAASGFTFSSYAMSWHRQAPGKGLEWVSAINSGGGSTSYADSVKGRFAISRDNAKNTLYLQMNSLKPEDTAVYYCATTISDGSSWSTKSYRGQGTQVTVSS , report its pKd.
RESULT: 8.28

QUERY: Another: NRCoV2-MRed20 VHH (VHH) VHH: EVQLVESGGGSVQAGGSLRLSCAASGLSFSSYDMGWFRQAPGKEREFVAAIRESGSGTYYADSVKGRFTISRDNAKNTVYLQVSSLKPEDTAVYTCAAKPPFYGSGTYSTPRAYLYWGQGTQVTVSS
RESULT: 9.52

QUERY: Another: NRCoV2-MRed19 VHH (VHH) VHH: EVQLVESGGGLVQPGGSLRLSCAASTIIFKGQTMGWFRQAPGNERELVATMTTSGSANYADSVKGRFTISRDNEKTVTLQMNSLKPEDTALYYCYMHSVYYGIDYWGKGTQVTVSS
RESULT: 8.09

Continuing:
QUERY: Using the record for NRCoV2-MRed22 VHH (VHH) VHH: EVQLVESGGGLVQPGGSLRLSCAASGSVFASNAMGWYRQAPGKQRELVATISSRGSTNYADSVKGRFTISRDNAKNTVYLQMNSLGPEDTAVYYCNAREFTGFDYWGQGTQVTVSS , report its pKd.
RESULT: 8.98

QUERY: Another: NRCoV2-MRed18 VHH (VHH) VHH: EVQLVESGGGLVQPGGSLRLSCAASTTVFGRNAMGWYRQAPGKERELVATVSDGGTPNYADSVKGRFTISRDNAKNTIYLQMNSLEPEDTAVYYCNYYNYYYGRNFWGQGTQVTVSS
RESULT: 8.17

QUERY: Another: NRCoV2-MRed25 VHH (VHH) VHH: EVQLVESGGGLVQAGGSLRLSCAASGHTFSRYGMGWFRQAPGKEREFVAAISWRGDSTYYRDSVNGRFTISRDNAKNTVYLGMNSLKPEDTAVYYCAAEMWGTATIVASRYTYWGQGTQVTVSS
RESULT: 8.81

Data origin: patent US20240270826A1
